Data credit: ChEMBL document CHEMBL1135254

Measured IC50 on 5-hydroxytryptamine receptor 4 (Cavia porcellus) follows.
Sequence (O70528 whole entry): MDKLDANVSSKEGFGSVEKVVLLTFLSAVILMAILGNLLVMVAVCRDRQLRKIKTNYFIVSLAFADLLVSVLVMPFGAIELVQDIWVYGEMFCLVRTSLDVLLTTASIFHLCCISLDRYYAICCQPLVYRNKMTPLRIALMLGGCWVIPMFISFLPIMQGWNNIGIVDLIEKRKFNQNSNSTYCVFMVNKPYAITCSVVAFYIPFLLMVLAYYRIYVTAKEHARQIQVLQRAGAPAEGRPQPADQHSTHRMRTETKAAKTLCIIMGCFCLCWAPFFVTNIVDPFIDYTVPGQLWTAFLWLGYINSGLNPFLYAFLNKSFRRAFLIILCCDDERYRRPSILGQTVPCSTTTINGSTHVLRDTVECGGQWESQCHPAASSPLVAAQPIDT
READOUT_LABEL: IC50 (nM)

| COMPOUND | IC50, nM |
| --- | --- |
| COc1cc(N)c(Cl)cc1C(=O)NC1CCN(CC2CCN(C(=O)C(N)C(C)C)CC2)CC1 (stereo unspecified) | 2.53 |
| COc1cc(N)c(Cl)cc1C(=O)NC1CCN(CC2CCN(CCCCCN)CC2)CC1 | 11.2 |
| CCOc1cc(N)c(Cl)cc1C(=O)NCC1CN(Cc2ccc(F)cc2)CCO1 (stereo unspecified) [MOSAPRIDE] | 113 |
| COc1cc(N)c(Cl)cc1C(=O)NC1CCN(CC2CCN(CCCCN)CC2)CC1 | 6.47 |
| COc1cc(N)c(Cl)cc1C(=O)NC1CCN(CC2CCN(CC(O)CN)CC2)CC1 (stereo unspecified) | 14.4 |

(A) COc1cc(N)c(Cl)cc1C(=O)NC1CCN(CC2CCN(C(=O)C(C)N)CC2)CC1 (stereo unspecified)
(B) COc1cc(N)c(Cl)cc1C(=O)NC1CCN(CC2CCN(C(=O)CN)CC2)CC1
(C) COc1cc(N)c(Cl)cc1C(=O)NC1CCN(CC2CCN(CCCNS(C)(=O)=O)CC2)CC1
(D) COc1cc(N)c(Cl)cc1C(=O)NCC(O)CN1CCC(CN2CCC(N)CC2)CC1 (stereo unspecified)
Please put the entries in order of rising IC50. Give your ranking as a list of the labels in the requested order. A, B, C, D
(A: 5.06 nM, B: 9.3 nM, C: 21.1 nM, D: 40.6 nM)

(1) COc1cc(N)c(Cl)cc1C(=O)NC1CCN(CC2CCN(C(=O)CCCCN)CC2)CC1
(2) COc1cc(N)c(Cl)cc1C(=O)NC1CCN(CC2CCN(C(=O)CCN)CC2)CC1
Rank 1 against 2 by their IC50 values and give the higher one. When you have decided, please share the label of that item. 2
(2: 9.5 nM, 1: 3.91 nM)

====

In this section we review reported Induction number values for a set of molecules.
# Tested on: Canis familiaris
# EXPERIMENTAL_DETAILS: Gastrointestinal motility was reported after intravenous administration at a dose 1 mg/kg to dogs as induction number of GMC (gaint migrating contractions)
# Format: functional, Canis lupus familiaris
Reply with the value as a number alone.

Report Induction number for COc1cc(N)c(Cl)cc1C(=O)NC1CCN(C(=O)C2CCN(C(=O)CCCN)CC2)CC1 please. 2

I am curious: what Induction number value has been reported for COc1cc(N)c(Cl)cc1C(=O)NC1CCN(CC2CCN(C(=O)CN)CC2)CC1 ? 5

What measured Induction number goes with CCCC(N)C(=O)N1CCC(CN2CCC(NC(=O)c3cc(Cl)c(N)cc3OC)CC2)CC1 (stereo not given) ? 1

Query: Induction number; subject: COc1cc(N)c(Cl)cc1C(=O)NC1CCN(CC2CCN(CCCNS(C)(=O)=O)CC2)CC1 2

Requested field: Induction number. Item: COc1cc(N)c(Cl)cc1C(=O)NC1CCN(CC2CCN(CC(C)CN)CC2)CC1 (stereo not given) 1

Fill blank: measured Induction number of the molecule COc1cc(N)c(Cl)cc1C(=O)NC1CCN(CC2CCN(C(=O)CCCN)CC2)CC1 is ____. 5

Which Induction number value belongs to COc1cc(N)c(Cl)cc1C(=O)NC1CCN(CC2CCN(CCCCCN)CC2)CC1 ? 4

Name the reported Induction number value associated with the molecule COc1cc(N)c(Cl)cc1C(=O)NC1CCN(CC2CCN(C(=O)CCN)CC2)CC1 3

Please give the measured Induction number for this molecule: COc1cc(N)c(Cl)cc1C(=O)NC1CCN(CC2CCN(CCCCN)CC2)CC1 6

Query (molecule): COc1cc(N)c(Cl)cc1C(=O)NC1CCN(CC2CCN(CCCN)CC2)CC1 ; field requested: Induction number 7

====

# Organism: Mus musculus
# EXPERIMENTAL_DETAILS: Dose at which the compound induced fecal excretion in mice
# Type: organism-based, Feces
# CONDITIONS: in vivo
READOUT_LABEL: Dose

Any idea what its Dose is? The compound is COc1cc(N)c(Cl)cc1C(=O)NC1CCN(CC2CCN(CCCCN)CC2)CC1 > 1 mg/kg
